Tested on: CPC-N (Small Cell Lung Carcinoma);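 further: after 72 h of two-drug dosing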
ASSAY METHOD TEXT: Bliss excess, mean over the matrix (fraction); higher = more synergy
Measured Bliss excess, listed per entry for reference.
Number, no unit, nothing else.

MOLECULE	OBSERVED
CN(CCO)CC[C@H](CSc1ccccc1)Nc1ccc(S(=O)(=O)NC(=O)c2ccc(N3CCC([C@@H](O)c4ccccc4-c4ccc(Cl)cc4)CC3)cc2)cc1S(=O)(=O)C(F)(F)F [AZD4320] + CS(=O)(=O)CCNCc1ccc(-c2ccc3ncnc(Nc4ccc(OCc5cccc(F)c5)c(Cl)c4)c3c2)o1 [Lapatinib] (first compound max 1 µM, 7x7, partner max 10 µM)	0.052
CN(CCO)CC[C@H](CSc1ccccc1)Nc1ccc(S(=O)(=O)NC(=O)c2ccc(N3CCC([C@@H](O)c4ccccc4-c4ccc(Cl)cc4)CC3)cc2)cc1S(=O)(=O)C(F)(F)F [AZD4320] + CN(C)CCCOc1ccc(-c2ccc3ncc4c(c3c2)n(C2CCOCC2)c(=O)n4C)cn1 [AZD0156] (first compound max 1 µM, 7x7, partner max 1 µM)	-0.0391

Read the next record carefully.
# return recorded Bliss excess for entry Cc1c2c(nn1C)CSCc1cc(n(C)n1)CSc1cc(c3ccccc3c1)OCCCc1c(C(=O)O)n(C)c3c-2c(Cl)ccc13 [AZD5991] + C[C@@H]1COCCN1C2=NC(=NC(=C2)C3(CC3)[S@](=N)(=O)C)C4=C5C=CNC5=NC=C4 [AZD6738] (first compound max 1 µM, 7x7, partner max 10 µM)
-0.024

Values compiled from the supplement of paper PMC11061612.
